# measurement protocol: collision cross section (TIMS, N2 drift gas) of the primary ion; higher = larger gas-phase ion size
# particulars: ionization mode: ESI-; ion species: [M-H]-
experimental endpoint: collision cross section (Å²)

In [3]: df
Out[3]:
                                    molecule    experimental_endpoint  quantity_unit  reported_measurement
 0                     COc1cc2ccc(=O)oc2cc1O  collision cross section             Å²                 133.5
 1                       Oc1nc(Cl)c(Cl)cc1Cl  collision cross section             Å²                125.88
 2                    N#Cc1cc(Cl)c(O)c(Cl)c1  collision cross section             Å²                 125.1
 3             Nc1ccc(S(=O)(=O)Nc2ccccn2)cc1  collision cross section             Å²                155.15
 4  C=CCC1(C(C)CCC)C(=O)NC(=O)NC1=O (stereo not given)  collision cross section             Å²                153.23
 5        CN/C(=N\[N+](=O)[O-])NCc1cnc(Cl)s1  collision cross section             Å²                150.63
 6  C[C@]12CC[C@@H]3c4ccc(O)cc4CC[C@H]3[C@@H]1CC[C@@H]2O  collision cross section             Å²                173.91
 7  CCCOc1nn(C(=O)NS(=O)(=O)c2ccccc2C(=O)OC)c(=O)n1C  collision cross section             Å²                193.45
 8                   O=C1NS(=O)(=O)c2ccccc21  collision cross section             Å²                128.86
 9                  CC(C)OC(=O)Nc1cccc(Cl)c1  collision cross section             Å²                 147.2
10  COCC(=O)N(c1c(C)cccc1C(=O)O)C(C)C(=O)O (stereo not given)  collision cross section             Å²                159.84
11  COC(=O)c1cc(C(=O)OC)cc(S(=O)(=O)O)c1 [Dimethyl-5-sulfoisophthalate]  collision cross section             Å²                162.37
12  Oc1ccc(C(c2ccccc2)(c2ccccc2)c2ccc(O)cc2)cc1  collision cross section             Å²                196.58
13                        Oc1ccccc1-c1ccccc1  collision cross section             Å²                134.42
14                CC(c1ccc(O)cc1)c1ccc(O)cc1  collision cross section             Å²                 156.4
15            O=C(O)Cc1ccccc1Nc1c(Cl)cccc1Cl  collision cross section             Å²                161.99
16              Nc1c(Cl)c(F)nc(OCC(=O)O)c1Cl  collision cross section             Å²                139.78
17          COc1ccc(-c2coc3cc(O)ccc3c2=O)cc1  collision cross section             Å²                163.97
18       O=C(Nc1ccc(Cl)cc1)Nc1ccc(Cl)c(Cl)c1  collision cross section             Å²                167.79
19               Cc1cccc(Nc2ccccc2C(=O)O)c1C  collision cross section             Å²                159.71

---

# measurement protocol: reversed-phase LC retention time (C18, 15 min MeOH gradient); higher = more hydrophobic / later elution
# particulars: ionization mode: ESI-; ion species: [M-H]-
reversed-phase LC retention time values for the compounds below.
experimental endpoint: reversed-phase LC retention time (min)

In [3]: df
Out[3]:
                                    compound  quantity_unit  reported_measurement
 0  Cc1ccccc1N=C(N)Nc1ccccc1C [1,3-Di-o-tolylguanidine]            min                    11
 1  C[C@]12CC[C@@H]3c4ccc(O)cc4CC[C@H]3[C@@H]1C[C@@H](O)[C@@H]2O [Estriol]            min                  11.4
 2  COc1ccc2nc(SCc3ncc(C)c(OC)c3C)[nH]c2c1 [Omeprazole sulfide]            min                  13.9
 3  Cn1c(N)nc2ncc(-c3ccccc3)cc21 [2-Amino-1-methyl-6-phenylimidazo[4,5-b]pyridine (PhIP)]            min                  12.1
 4  CC(C)N1C(=O)c2ccccc2NS1(=O)=O [Bentazone]            min                  7.56
 5  Nc1ccc(S(=O)(=O)Nc2nccs2)cc1 [Sulfathiazole]            min                  5.71
 6  CCN(CC)C(=O)c1cccc(C(=O)O)c1 [DEET carboxylic acid]            min                  8.24
 7  C[C@H]1c2cccc(O)c2C(=O)C2=C(O)[C@]3(O)C(=O)C(C(N)=O)=C(O)[C@@H](N(C)C)[C@@H]3[C@@H](O)[C@@H]21 [Doxycycline]            min                  10.2
 8  Cc1cccc(Nc2ccncc2S(=O)(=O)NC(=O)NC(C)C)c1 [Torasemide]            min                  12.4
 9  N#Cc1cc(Br)c(O)c(Br)c1 [3,5-Dibromo-4-hydroxybenzonitrile]            min                  8.01
10  CN(C)CC(c1ccc(O)cc1)C1(O)CCCCC1 (configuration not stated) [Venlafaxine-O-desmethyl]            min                  11.3
11      COc1cc2ccc(=O)oc2c(O)c1OC [Fraxidin]            min                  8.57
12  CC(C)COC(=O)c1ccccc1C(=O)O [Mono-iso-butyl-phthalate]            min                  10.2
13  CC(C)c1c(C(=O)Nc2ccccc2)c(-c2ccccc2)c(-c2ccc(F)cc2)n1CCC(O)CC(O)CC(=O)O (configuration not stated) [Atorvastatin]            min                  14.6
14              Oc1cccc2ccccc12 [1-Naphthol]            min                  14.3
15  CCNS(=O)(=O)C(F)(F)C(F)(F)C(F)(F)C(F)(F)C(F)(F)C(F)(F)C(F)(F)C(F)(F)F [2-N-Ethylperfluorooctanesulfonamide]            min                  17.6
16  CCCCC(=O)N(Cc1ccc(-c2ccccc2-c2nn[nH]n2)cc1)C(C(=O)O)C(C)C (configuration not stated) [Valsartan]            min                  11.8

---

# measurement protocol: collision cross section (TIMS, N2 drift gas) of the primary ion; higher = larger gas-phase ion size
# particulars: ionization mode: ESI+; ion species: [M+H]+
experimental endpoint: collision cross section (Å²)

>>> print(df.to_string())
                                   molecule    experimental_endpoint  reported_measurement
0  CCCSP(=O)(OCC)Oc1ccc(Br)cc1Cl (centres undefined) [Profenofos]  collision cross section                169.17
1  CC1(C)CC(O)CC(C)(C)N1CCO [4-Hydroxy-1-(2-hydroxyethyl)-2,2,6,6-tetramethylpiperidine]  collision cross section                 143.1
2  COc1ccc2nc(SCc3ncc(C)c(OC)c3C)[nH]c2c1 [Omeprazole sulfide]  collision cross section                179.62
3  CC1COc2c(N3CCN(C)CC3)c(F)cc3c(=O)c(C(=O)O)cn1c23 (centres undefined) [Ofloxacin]  collision cross section                182.54
4  CC(CN1c2ccccc2Sc2ccccc21)N(C)C (centres undefined) [Promethazin]  collision cross section                164.06
5   CON(C)C(=O)Nc1ccc(Br)cc1 [Metobromuron]  collision cross section                148.37
6  CC(Cc1ccc(C(C)(C)C)cc1)CN1C[C@@H](C)O[C@@H](C)C1 (some centres undefined) [Fenpropimorph]  collision cross section                174.32
7  C=C1C[C@@H]2[C@H](CC[C@]3(C)C(=O)CC[C@@H]23)[C@@]2(C)C=CC(=O)C=C12 [Exemestane]  collision cross section                173.31
8         CNC(=O)CSP(=S)(OC)OC [Dimethoate]  collision cross section                141.81
